The measurements presented in this section are drawn from patent US20240174622A1.

- System: LNCaP tumor-transplanted mouse
- experiment_notes: Internal radioactivity distribution using LNCaP tumor-transplanted mouse
- Type: in vivo
- setup_conditions: 1 h after administration
measured_quantity: Heart (% ID/g)
One number for each entry, in % ID/g.

[
  {
    "compound": "O=C(O)CC[C@H](NC(=O)N[C@@H](CCCCNC(=O)[C@H](Cc1ccc2ccccc2c1)NC(=O)[C@H]1CC[C@H](CNC(=O)CCC(C(=O)O)N2CCN(CC(=O)O)CCN(C(CCC(=O)N[C@@H](CCCCNC(=O)CCCc3ccc(I)cc3)C(=O)O)C(=O)O)CCN(CC(=O)O)CC2)CC1)C(=O)O)C(=O)O (stereo partly drawn) [[^111In]In-PSMA-NAT-DA1, metal not drawn]",
    "Heart, % ID/g": 10.8
  },
  {
    "compound": "O=C([O-])CN(CCN(CCc1ccc(NC(=O)CCCCCNC(=O)CCC(=O)NCCCC[C@H](NC(=O)N[C@@H](CCC(=O)O)C(=O)O)C(=O)O)cc1)CCN(CC(=O)[O-])Cc1cccc(C(=O)[O-])n1)Cc1cccc(C(=O)[O-])n1.[111In+3] [[^111In]In-Neunpa-1, reference compound]",
    "Heart, % ID/g": 0.70
  },
  {
    "compound": "O=C([O-])CN1CCN(C(CCC(=O)NCCC(=O)N2Cc3ccccc3-c3c(nnn3CCOCCOCCOCCOCCC(=O)NCCCC[C@H](NC(=O)N[C@@H](CCC(=O)O)C(=O)O)C(=O)O)-c3ccccc32)C(=O)[O-])CCN(CC(=O)[O-])CCN(C(CCC(=O)N[C@@H](CCCCNC(=O)CCCc2ccc(I)cc2)C(=O)O)C(=O)[O-])CC1.[111In+3] (stereo partly drawn) [[^111In]In-PtDA]",
    "Heart, % ID/g": 5.49
  },
  {
    "compound": "O=C([O-])CN(CCN(CCc1ccc(NC(=O)[C@H](CCCCNC(=O)CCC(=O)NCCCC[C@H](NC(=O)N[C@@H](CCC(=O)O)C(=O)O)C(=O)O)NC(=O)CCCc2ccc(I)cc2)cc1)CCN(CC(=O)[O-])Cc1cccc(C(=O)[O-])n1)Cc1cccc(C(=O)[O-])n1.[111In+3] [[^111In]In-Neunpa-2]",
    "Heart, % ID/g": 3.74
  },
  {
    "compound": "O=C([O-])CN(Cc1cccc(C(=O)[O-])n1)C[C@H](Cc1ccc(NC(=O)CCCCCNC(=O)CCC(=O)NCCCC[C@H](NC(=O)N[C@@H](CCC(=O)O)C(=O)O)C(=O)O)cc1)N(CC(=O)[O-])Cc1cccc(C(=O)[O-])n1.[111In+3] [[^111In]In-Octapa-1, reference compound]",
    "Heart, % ID/g": 0.32
  }
]

The record that follows has no Heart shown yet.
Fill in the blank: the reported Heart of O=C([O-])CN(Cc1cccc(C(=O)[O-])n1)C[C@H](Cc1ccc(NC(=O)[C@H](CCCCNC(=O)CCC(=O)NCCCC[C@H](NC(=O)N[C@@H](CCC(=O)O)C(=O)O)C(=O)O)NC(=O)COCCOCCOCC(=O)N[C@@H](CCCCNC(=O)CCCc2ccc(I)cc2)C(=O)O)cc1)N(CC(=O)[O-])Cc1cccc(C(=O)[O-])n1.[111In+3] [[^111In]In-Octapa-3] is ____.
6.53
